Values compiled from patent US20160200799A1.

Give measured HI activity for each item. Keep answers brief.
measuredTarget: Influenza virus A/Brisbane/59/2007 (H1N1) (Influenza A virus A/Brisbane/59/2007 (H1N1))
assayText: cell-based or functional assay

The binder listed as Group 38 representative clone F082-338, Fab-PP-type antibody (Fab, V domains shown) VH: QVQLQESGAEVKKPGSSVKVSCKASGGPFRSHAISWVRQAAGQGLEWMGGITAVFGTANYAQKFQGRVTITADESTNIVSMELSSLRSEDTAIYYCARSLGYHTQYNGMDVWGQGTTVTVSS VL: DVVMTQSPSSVSASVGDRVTITCRASQGISSWLAWYQQKPGKAPKLLIYAASSLQSGVPSRFSGSGSGTDFTLTISSLQPEDFATYYCQQANSFPITFGQGTRLEIK shows HI activity equal to > 160 µg/mL

The binder listed as Group 48 representative clone F083-389, Fab-PP-type antibody (Fab, V domains shown) VH: QVQLVQSGAEVKKPGSSVKVSCKASGDIFNKFAITWVRQAPGQGLEWMGGITALFATTSYAQKFQDRVTINWDESTTTAFMELSSLRFEDTAVYYCARGPNYYETYLDNWGQGTLVTVSS VL: EIVLTQSPTILSASVGDRVTITCRASQSISKWLAWYQQKPGKVPKLLIYMASTLESGVPSRFSGSGSGSEFTLTISSLQPGDFATYYCQQYNSYPRTFGQGTKVEINV shows HI activity equal to > 160 µg/mL
